Kindly supply the reported IC50 values for the records listed here.
- TGT: Acetylcholinesterase (Mus musculus, UniProt P21836)
- Sequence (P21836 whole entry): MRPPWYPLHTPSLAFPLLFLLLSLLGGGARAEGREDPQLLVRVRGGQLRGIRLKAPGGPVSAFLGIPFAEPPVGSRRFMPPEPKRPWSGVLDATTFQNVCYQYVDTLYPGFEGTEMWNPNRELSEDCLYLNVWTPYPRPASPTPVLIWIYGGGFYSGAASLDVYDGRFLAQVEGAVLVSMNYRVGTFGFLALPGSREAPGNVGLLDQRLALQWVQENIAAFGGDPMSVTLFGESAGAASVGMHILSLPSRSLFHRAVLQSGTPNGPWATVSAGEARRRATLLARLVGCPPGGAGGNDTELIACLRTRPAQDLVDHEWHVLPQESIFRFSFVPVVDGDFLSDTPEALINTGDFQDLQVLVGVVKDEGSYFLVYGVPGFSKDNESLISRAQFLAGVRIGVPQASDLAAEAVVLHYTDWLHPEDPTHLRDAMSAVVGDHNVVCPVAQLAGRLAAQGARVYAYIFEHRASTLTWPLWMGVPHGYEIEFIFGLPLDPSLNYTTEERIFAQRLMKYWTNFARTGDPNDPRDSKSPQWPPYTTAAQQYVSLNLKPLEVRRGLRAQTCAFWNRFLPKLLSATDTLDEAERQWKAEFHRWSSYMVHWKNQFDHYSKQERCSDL
One number for each entry, in nM.

For every item below, please supply its IC50.
1. CN(C)C(=O)Oc1ccc([C@@H](N)CCOc2ccc([N+](=O)[O-])cc2)cc1
2. CNC(CCOc1ccc([N+](=O)[O-])cc1)c1ccc(OC(=O)N(C)C)cc1 (racemic)
3. CN(C)C(=O)Oc1ccc2c(c1)C=CCN[C@@H]2CCOc1ccc([N+](=O)[O-])cc1
4. CN[C@@H](CCOc1ccc([N+](=O)[O-])cc1)c1ccc(OC(=O)N(C)C)cc1
5. CN[C@H](CCOc1ccc([N+](=O)[O-])cc1)c1ccc(OC(=O)N(C)C)cc1

1: 101; 2: 125; 3: 14; 4: 101; 5: 143

====

Entries below carry reported IC50 on Acetylcholinesterase (Homo sapiens, UniProt P22303).
Sequence (P22303 whole entry): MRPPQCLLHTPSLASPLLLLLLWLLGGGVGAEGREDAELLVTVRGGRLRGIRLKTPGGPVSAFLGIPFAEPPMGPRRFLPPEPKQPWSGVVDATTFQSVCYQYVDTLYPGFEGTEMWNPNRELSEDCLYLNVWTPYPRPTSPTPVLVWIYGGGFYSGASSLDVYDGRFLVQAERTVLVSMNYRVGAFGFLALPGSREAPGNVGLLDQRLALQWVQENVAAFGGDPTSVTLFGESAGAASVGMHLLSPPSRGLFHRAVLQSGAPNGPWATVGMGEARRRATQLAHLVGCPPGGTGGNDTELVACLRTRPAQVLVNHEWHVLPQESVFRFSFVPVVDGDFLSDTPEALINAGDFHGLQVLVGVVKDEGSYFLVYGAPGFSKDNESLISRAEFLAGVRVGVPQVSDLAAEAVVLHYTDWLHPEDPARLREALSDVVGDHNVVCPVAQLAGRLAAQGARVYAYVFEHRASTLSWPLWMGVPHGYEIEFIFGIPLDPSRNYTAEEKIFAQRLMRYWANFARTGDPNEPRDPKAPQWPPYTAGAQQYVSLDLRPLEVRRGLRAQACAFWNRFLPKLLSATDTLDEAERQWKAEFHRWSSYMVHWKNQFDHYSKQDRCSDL
Give bare numbers, in nM.

COc1ccc2[nH]cc(CCNC(=O)CN(CCC3CCN(Cc4ccccc4)CC3)C(=O)/C=C/c3ccc(O)c(OC)c3)c2c1    30.7

// IC50 (Acetylcholinesterase (Homo sapiens, UniProt P22303)) for `COc1ccc2[nH]cc(CCNC(=O)CN(CCCC3CCN(Cc4ccccc4)CC3)C(=O)/C=C/c3ccc(O)c(OC)c3)c2c1` = 26.2

====

- TGT: Histamine H3 receptor (Homo sapiens, UniProt Q9Y5N1)
- Sequence (Q9Y5N1 whole entry): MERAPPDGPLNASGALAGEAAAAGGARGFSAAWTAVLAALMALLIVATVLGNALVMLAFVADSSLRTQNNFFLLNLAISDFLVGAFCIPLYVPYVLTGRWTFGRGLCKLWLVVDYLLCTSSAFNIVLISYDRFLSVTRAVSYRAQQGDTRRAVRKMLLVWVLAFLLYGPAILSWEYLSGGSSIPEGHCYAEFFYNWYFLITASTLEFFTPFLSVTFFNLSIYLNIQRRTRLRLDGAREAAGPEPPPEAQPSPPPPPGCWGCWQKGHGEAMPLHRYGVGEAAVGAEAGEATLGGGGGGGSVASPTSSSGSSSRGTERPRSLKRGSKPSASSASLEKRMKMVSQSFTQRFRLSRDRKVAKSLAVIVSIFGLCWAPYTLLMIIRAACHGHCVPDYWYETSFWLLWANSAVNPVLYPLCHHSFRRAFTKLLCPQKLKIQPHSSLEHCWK
MEASURED_PARAMETER: Ki (nM)
Give bare numbers, in nM.

Ki in this record for `C#CCN(C)Cc1cc2cc(OCCCC3CCN(Cc4ccccc4)CC3)ccc2n1C` : 84.2

====

- TGT: Acetylcholinesterase (Bos taurus)
- Sequence (P23795 whole entry): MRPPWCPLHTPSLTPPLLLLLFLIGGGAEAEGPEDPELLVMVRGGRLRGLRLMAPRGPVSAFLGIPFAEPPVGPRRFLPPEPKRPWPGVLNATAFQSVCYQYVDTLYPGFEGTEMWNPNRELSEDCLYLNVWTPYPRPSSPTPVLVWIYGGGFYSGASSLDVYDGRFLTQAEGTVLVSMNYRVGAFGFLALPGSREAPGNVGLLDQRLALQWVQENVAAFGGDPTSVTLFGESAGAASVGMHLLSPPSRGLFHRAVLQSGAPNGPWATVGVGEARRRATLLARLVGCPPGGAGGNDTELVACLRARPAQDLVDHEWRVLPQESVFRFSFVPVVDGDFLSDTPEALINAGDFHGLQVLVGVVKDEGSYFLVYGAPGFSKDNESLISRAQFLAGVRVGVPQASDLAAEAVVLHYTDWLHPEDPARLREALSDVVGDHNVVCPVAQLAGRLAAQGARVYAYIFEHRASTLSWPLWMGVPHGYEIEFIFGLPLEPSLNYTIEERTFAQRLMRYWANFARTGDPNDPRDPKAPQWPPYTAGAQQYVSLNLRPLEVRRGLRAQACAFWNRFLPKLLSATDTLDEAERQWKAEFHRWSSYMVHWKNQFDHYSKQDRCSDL
MEASURED_PARAMETER: IC50 (nM)
One number for each entry, in nM.

Lookup result for CC1=CC2Cc3nc4cc(Cl)ccc4c(N)c3C(C1)C2 (single isomer, unassigned; (+)) ; measured IC50: 36.1

====

- TGT: Cholinesterase (Equus caballus)
- Sequence (P81908 whole entry): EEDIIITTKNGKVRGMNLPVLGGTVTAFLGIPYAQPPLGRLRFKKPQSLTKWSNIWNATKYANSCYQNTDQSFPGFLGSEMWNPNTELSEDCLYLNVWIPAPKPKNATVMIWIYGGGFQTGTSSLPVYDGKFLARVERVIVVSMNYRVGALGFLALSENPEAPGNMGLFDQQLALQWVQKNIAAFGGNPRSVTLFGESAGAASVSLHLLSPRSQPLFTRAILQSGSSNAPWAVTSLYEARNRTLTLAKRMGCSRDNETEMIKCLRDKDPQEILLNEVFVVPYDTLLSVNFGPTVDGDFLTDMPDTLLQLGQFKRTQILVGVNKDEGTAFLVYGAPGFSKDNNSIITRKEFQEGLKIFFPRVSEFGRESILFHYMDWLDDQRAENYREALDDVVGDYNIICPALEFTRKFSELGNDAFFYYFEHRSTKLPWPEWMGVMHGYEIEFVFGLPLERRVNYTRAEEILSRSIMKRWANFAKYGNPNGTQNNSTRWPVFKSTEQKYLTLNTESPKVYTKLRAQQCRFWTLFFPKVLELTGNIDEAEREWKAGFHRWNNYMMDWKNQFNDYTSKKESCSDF
- RUN_DESCRIPTION: Inhibition of equine serum BuChE using butyrylthiocholine iodide as substrate pretreated followed by substrate addition and measured after 2 mins by Ellman's method
MEASURED_PARAMETER: IC50
# number then unit; no other words

O=C(/C=C/c1ccc(OCc2ccccc2)cc1)NCCNc1c2c(nc3ccccc13)CCCC2    42.6 nM

Next, consider the following compound.
Please fill in: IC50 reported for `COc1cc(/C=C/C(=O)NCCNc2c3c(nc4ccccc24)CCCC3)ccc1OCc1ccccc1` = 52.6 nM

Values from ChEMBL document CHEMBL4342404
